B1: RIPK4 (parent)
chain: RERMELLEEAKKMEMAKFRYILPV

variants of: B1; test: protein stability index of a GFP-peptide fusion (GPS, HEK-293T) (PSI 1-6); higher = more stable; conditions: c terminus: a fixed tail appended;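 further: lentivirally expressed fusions sorted by FACS into six bins by GFP to DsRed ratio, PSI derived from sequencing read proportions per bin multiplied by bin number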
Think of 3 as a floor: if protein stability index stands on it or above, it is class 1; beneath it, class 0.

**Query** Could you tell me if the measured protein stability index of RERMELLEEAKKMEMAKCRYILPV [F18C] reaches 3 or more?
**Result** class 0

**Query** Repeat for the following variant: NERMELLEEAKKMEMAKFRYILPV [R1N]
**Result** class 1

**Query** Repeat for the following variant: RERMTLLEEAKKMEMAKFRYILPV [E5T]
**Result** class 0

**Query** Repeat for the following variant: RERMELLEEAKKMEMAKFREILPV [Y20E]
**Result** class 1

**Query** Repeat for the following variant: RERMELLEELKKMEMAKFRYILPV [A10L]
**Result** class 1

**Query** Repeat for the following variant: RERMELLEEAKKMGMAKFRYILPV [E14G]
**Result** class 0

**Query** Repeat for the following variant: RERMELLEEAKKMEMAKIRYILPV [F18I]
**Result** class 0

**Query** Repeat for the following variant: RERMELLEEAKWMEMAKFRYILPV [K12W]
**Result** class 0

**Query** Repeat for the following variant: RERMELLEEAKKMEMAKFRYILPD [V24D]
**Result** class 1

**Query** Repeat for the following variant: RERMELLEAAKKMEMAKFRYILPV [E9A]
**Result** class 0
